- System: HeLa Kyoto
- Measurement Description: melting temperature (median over replicates), in situ; higher = more thermally stable
- Run Parameters: cell cycle stage: mitosis
Reported Metric: melting temperature (°C)

polymer_sequence="MSIFTPTNQIRLTNVAVVRMKRAGKRFEIACYKNKVVGWRSGVEKDLDEVLQTHSVFVNVSKGQVAKKEDLISAFGTDDQTEICKQILTKGEVQVSDKERHTQLEQMFRDIATIVADKCVNPETKRPYTVILIERAMKDIHYSVKTNKSTKQQALEVIKQLKEKMKIERAHMRLRFILPVNEGKKLKEKLKPLIKVIESEDYGQQLEIVCLIDPGCFREIDELIKKETKGKGSLEVLNLKDVEEGDEKFE [SBDS]" target_desc="HeLa Kyoto" readout_unit=°C recorded_value=50.2
polymer_sequence="MAATKRKRRGGFAVQAKKPKRNEIDAEPPAKRHATAEEVEEEERDRIPGPVCKGKWKNKERILIFSSRGINFRTRHLMQDLRMLMPHSKADTKMDRKDKLFVINEVCEMKNCNKCIYFEAKKKQDLYMWLSNSPHGPSAKFLVQNIHTLAELKMTGNCLKGSRPLLSFDPAFDELPHYALLKELLIQIFSTPRYHPKSQPFVDHVFTFTILDNRIWFRNFQIIEEDAALVEIGPRFVLNLIKIFQGSFGGPTLYENPHYQSPNMHRRVIRSITAAKYREKQQVKDVQKLRKKEPKTLLPHDPTADVFVTPAEEKPIEIQWVKPEPKVDLKARKKRIYKRQRKMKQRMDSGKTK [BRIX1]" target_desc="HeLa Kyoto" readout_unit=°C recorded_value=52.9
polymer_sequence="MEMSGLSFSEMEGCRNLLGLLDNDEIMALCDTVTNRLVQPQDRQDAVHAILAYSQSAEELLRRRKVHREVIFKYLATQGIVIPPATEKHNLIQHAKDYWQKQPQLKLKETPEPVTKTEDIHLFQQQVKEDKKAEKVDFRRLGEEFCHWFFGLLNSQNPFLGPPQDEWGPQHFWHDVKLRFYYNTSEQNVMDYHGAEIVSLRLLSLVKEEFLFLSPNLDSHGLKCASSPHGLVMVGVAGTVHRGNTCLGIFEQIFGLIRCPFVENTWKIKFINLKIMGESSLAPGTLPKPSVKFEQSDLEAFYNVITVCGTNEVRHNVKQASDSGTGDQV [C3ORF38]" target_desc="HeLa Kyoto" readout_unit=°C recorded_value=50.9
polymer_sequence="MAGGGAGDPGLGAAAAPAPETREHLFKVLVIGELGVGKTSIIKRYVHQLFSQHYRATIGVDFALKVLNWDSRTLVRLQLWDIAGQERFGNMTRVYYKEAVGAFVVFDISRSSTFEAVLKWKSDLDSKVHLPNGSPIPAVLLANKCDQNKDSSQSPSQVDQFCKEHGFAGWFETSAKDNINIEEAARFLVEKILVNHQSFPNEENDVDKIKLDQETLRAENKSQCC [RAB32]" target_desc="HeLa Kyoto" readout_unit=°C recorded_value=53.4
polymer_sequence="MPRKRKCDLRAVRVGLLLGGGGVYGSRFRFTFPGCRALSPWRVRVQRRRCEMSTMFADTLLIVFISVCTALLAEGITWVLVYRTDKYKRLKAEVEKQSKKLEKKKETITESAGRQQKKKIERQEEKLKNNNRDLSMVRMKSMFAIGFCFTALMGMFNSIFDGRVVAKLPFTPLSYIQGLSHRNLLGDDTTDCSFIFLYILCTMSIRQNIQKILGLAPSRAATKQAGGFLGPPPPSGKFS [TMCO1]" target_desc="HeLa Kyoto" readout_unit=°C recorded_value=54.1
polymer_sequence="MKIKDAKKPSFPWFGMDIGGTLVKLSYFEPIDITAEEEQEEVESLKSIRKYLTSNVAYGSTGIRDVHLELKDLTLFGRRGNLHFIRFPTQDLPTFIQMGRDKNFSTLQTVLCATGGGAYKFEKDFRTIGNLHLHKLDELDCLVKGLLYIDSVSFNGQAECYYFANASEPERCQKMPFNLDDPYPLLVVNIGSGVSILAVHSKDNYKRVTGTSLGGGTFLGLCSLLTGCESFEEALEMASKGDSTQADKLVRDIYGGDYERFGLPGWAVASSFGNMIYKEKRESVSKEDLARATLVTITNNIGSVARMCAVNEKINRVVFVGNFLRVNTLSMKLLAYALDYWSKGQLKALFLEHEGYFGAVGALLGLPNFS [PANK3]" target_desc="HeLa Kyoto" readout_unit=°C recorded_value=53.9
polymer_sequence="MGCTLSAEDKAAVERSKMIDRNLREDGEKAAKEVKLLLLGAGESGKSTIVKQMKIIHEDGYSEDECKQYKVVVYSNTIQSIIAIIRAMGRLKIDFGEAARADDARQLFVLAGSAEEGVMTPELAGVIKRLWRDGGVQACFSRSREYQLNDSASYYLNDLDRISQSNYIPTQQDVLRTRVKTTGIVETHFTFKDLYFKMFDVGGQRSERKKWIHCFEGVTAIIFCVALSDYDLVLAEDEEMNRMHESMKLFDSICNNKWFTETSIILFLNKKDLFEEKIKRSPLTICYPEYTGSNTYEEAAAYIQCQFEDLNRRKDTKEIYTHFTCATDTKNVQFVFDAVTDVIIKNNLKECGLY [GNAI3]" target_desc="HeLa Kyoto" readout_unit=°C recorded_value=54.2
polymer_sequence="MPDENIFLFVPNLIGYARIVFAIISFYFMPCCPLTASSFYLLSGLLDAFDGHAARALNQGTRFGAMLDMLTDRCSTMCLLVNLALLYPGATLFFQISMSLDVASHWLHLHSSVVRGSESHKMIDLSGNPVLRIYYTSRPALFTLCAGNELFYCLLYLFHFSEGPLVGSVGLFRMGLWVTAPIALLKSLISVIHLITAARNMAALDAADRAKKK [CDIPT]" target_desc="HeLa Kyoto" readout_unit=°C recorded_value=59.4
polymer_sequence="MRRLNRKKTLSLVKELDAFPKVPESYVETSASGGTVSLIAFTTMALLTIMEFSVYQDTWMKYEYEVDKDFSSKLRINIDITVAMKCQYVGADVLDLAETMVASADGLVYEPTVFDLSPQQKEWQRMLQLIQSRLQEEHSLQDVIFKSAFKSTSTALPPREDDSSQSPNACRIHGHLYVNKVAGNFHITVGKAIPHPRGHAHLAALVNHESYNFSHRIDHLSFGELVPAIINPLDGTEKIAIDHNQMFQYFITVVPTKLHTYKISADTHQFSVTERERIINHAAGSHGVSGIFMKYDLSSLMVTVTEEHMPFWQFFVRLCGIVGGIFSTTGMLHGIGKFIVEIICCRFRLGSYKPVNSVPFEDGHTDNHLPLLENNTH [ERGIC2]" target_desc="HeLa Kyoto" readout_unit=°C recorded_value=53.8
polymer_sequence="MADIDNKEQSELDQDLDDVEEVEEEETGEETKLKARQLTVQMMQNPQILAALQERLDGLVETPTGYIESLPRVVKRRVNALKNLQVKCAQIEAKFYEEVHDLERKYAVLYQPLFDKRFEIINAIYEPTEEECEWKPDEEDEISEELKEKAKIEDEKKDEEKEDPKGIPEFWLTVFKNVDLLSDMVQEHDEPILKHLKDIKVKFSDAGQPMSFVLEFHFEPNEYFTNEVLTKTYRMRSEPDDSDPFSFDGPEIMGCTGCQIDWKKGKNVTLKTIKKKQKHKGRGTVRTVTKTVSNDSFFNFFAPPEVPESGDLDDDAEAILAADFEIGHFLRERIIPRSVLYFTGEAIEDDDDDYDEEGEEADEEGEEEGDEENDPDYDPKKDQNPAECKQQ [NAP1L1]" target_desc="HeLa Kyoto" readout_unit=°C recorded_value=50.9
polymer_sequence="MDPLFQQTHKQVHEIQSCMGRLETADKQSVHIVENEIQASIDQIFSRLERLEILSSKEPPNKRQNARLRVDQLKYDVQHLQTALRNFQHRRHAREQQERQREELLSRTFTTNDSDTTIPMDESLQFNSSLQKVHNGMDDLILDGHNILDGLRTQRLTLKGTQKKILDIANMLGLSNTVMRLIEKRAFQDKYFMIGGMLLTCVVMFLVVQYLT [GOSR2]" target_desc="HeLa Kyoto" readout_unit=°C recorded_value=51.4

* * *

- System: HeLa Kyoto
- Measurement Description: thermal stability score vs G1/S (z-score of summed log2 fold changes over temperatures); higher = more thermally stable than in G1/S
- Run Parameters: cell cycle stage: early G1 (4.5 h after nocodazole release)
Reported Metric: thermal stability score

polymer_sequence="MSELEQLRQEAEQLRNQIRDARKACGDSTLTQITAGLDPVGRIQMRTRRTLRGHLAKIYAMHWGTDSRLLVSASQDGKLIIWDSYTTNKVHAIPLRSSWVMTCAYAPSGNFVACGGLDNICSIYSLKTREGNVRVSRELPGHTGYLSCCRFLDDNQIITSSGDTTCALWDIETGQQTVGFAGHSGDVMSLSLAPDGRTFVSGACDASIKLWDVRDSMCRQTFIGHESDINAVAFFPNGYAFTTGSDDATCRLFDLRADQELLMYSHDNIICGITSVAFSRSGRLLLAGYDDFNCNIWDAMKGDRAGVLAGHDNRVSCLGVTDDGMAVATGSWDSFLKIWN [GNB2]" target_desc="HeLa Kyoto" recorded_value=-0.768
